- Substrate: PET
- Protocol: Proxy for plastic degradation [HPLC-UV]
- Conditions: pH 9; 40 °C; 24 h
Measured property: Proxy for plastic degradation

Illustrative cases are given below, each with its answer.
unnamed (protein) MNFPRASRLMQAAVLGGLMAVSAAATAQTNPYARGPNPTAASLEASAGPFTVRSFTVSRPSGYGAGTVYYPTNAGGTVGAIAIVPGYTARQSSIKWWGPRLASHGFVVITIDTNSTLDQPESRSSQQMAALRQVASLNGTSSSPIYGKVDTARMGVMGWSMGGGGSLISAANNPSLKAAAPQAPWHSSTNFSSVTVPTLIFACENDSIAPVNSSALPIYDSMSRNAKQFLEINGGSHSCANSGNSNQALIGKKGVAWMKRFMDNDTRYSTFACENPNSTRVSDFRTANCS
38.7 µM
unnamed (protein) MNFPRASRLMQAAVLGGLMAVSAAATAQTNPYARGPNPTAASLEASAGPFTVRSFTVSRPSGYGAGTVYYPTNAGGTVGAIAIVPGYTARQSSIKWWGPRLASHGFVVITIDTNSTLDQPSSRSSQQMAALRQVASLNGTSSSPIYGKVDTARMGVMGWSMGGGGSLISAANNPSLKAAAGQAPWDSSTNFSSVTVPTLIFACENDSIAPVNSSALPIYDSMSRNAKQFLEINGGSHSCANSGNSNQALIGKKGVAWMKRFMDNDTRYSTFACENPNSTRVSDFRTANCS
1.2 µM
unnamed (protein) MNFPRASRLMQAAVLGGLMAVSAAATAQTNPYARGPNPTAASLEASAGPFTVRSFTVSRPSGYGAGTVYYPTNAGGTVGAIAIVPGYTARQSSIKWWGPRLASHGFVVITIDTNSTLDQPSSRSSQQMAALRQVASLNGTSSSPIYGKVDTARMGVMGWSMGGGGSLISAANNPSLKAAAPQAPWLSSTNFSSVTVPTLIFACENDSIAPVNSSALPIYDSMSRNAKQFLEINGGSHSCANSGNSNQALIGKKGVAWMKRFMDNDTRYSTFACENPNSTRVSDFRTANCS
2 µM

For each listed entry, give its Proxy for plastic degradation.
1. unnamed (protein) MNFPRASRLMQAAVLGGLMAVSAAATAQTNPYARGPNPTAASLEASAGPFTVRSFTVSRPSGYGAGTVYYPTNAGGTVGAIAIVPGYTARQSSIKWWGPRLASHGFVVITIDTNSTLDQPDSRSSQQMAALRQVASLNGTSSSPIYGKVDTARMGVMGWSMGGGGSLISAANNPSLKAAAPQAPWHSSTNFSSVTVPTLIFACENDSIAPVNSSALPIYDSMSRNAKQFLEINGGSHSCANSGNSNQALIGKKGVAWMKRFMDNDTRYSTFACENPNSTRVSDFRTANCS
2. unnamed (protein) MNFPRASRLMQAAVLGGLMAVSAAATAQTNPYARGPNPTAASLEASAGPFTVRSFTVSRPSGYGAGTVYYPTNAGGTVGAIAIVPGYTARQSSIKWWGPRLASHGFVVITIDTNSTLDQPSSRSSQQMAALRQVASLNGTSSSPIYGKVDTARMGVMGWSMGGGGSLISAANNPSLKAAAPQAPWFSSTNFSSVTVPTLIFACENDSIAPVNSSALPIYDSMSRNAKQFLEINGGSHSCANSGNSNQALIGKKGVAWMKRFMDNDTRYSTFACENPNSTRVSDFRTANCS
3. unnamed (protein) MNFPRASRLMQAAVLGGLMAVSAAATAQTNPYARGPNPTAASLEASAGPFTVRSFTVSRPSGYGAGTVYYPTNAGGTVGAIAIVPGYTARQSSIKWWGPRLASHGFVVITIDTNSTLDQPDSRSSQQMAALRQVASLNGTSSSPIYGKVDTARMGVMGWSMGGGGSLISAANNPSLKAAAPQAPWHSSTNFSSVTVPTLIFACENDSIAPVNSSALPIYDSMSRNAKQFLEINGGSHSCANSGNSNQALIGKKGVAWMKRFMDNDTRYSTFACENPNSTAVSDFRTANCS

### Response
["28.9 µM", "7.5 µM", "69.8 µM"]
